Target Or Test System: ~100 representative kinases (Homo sapiens)
Construct: Recombinant protein kinase domains with a concentration of 2 μM
Experiment Description: DSF 100 kinase selectivity screen;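 further: compound tested at 20 µM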
Assay type: binding
Assay Setup: Protein DAPK1; average of three replicates
Endpoint: dTm (K)
Just the number in K, nothing appended.

For orientation, consider the following solved cases.
# Compound, Target Or Test System, dTm, K
measured = [
    ("Cc1cc(NC(=O)C2(C(=O)Nc3ccc(F)cc3)CC2)cc(-c2c[nH]c3ncnc(N4CCOCC4)c23)c1", "~100 representative kinases (Homo sapiens)", -0.31),
    ("Cc1ccc(NC(=O)C2(C(=O)Nc3cccc(-c4c[nH]c5ncnc(N6CCOCC6)c45)c3)CC2)cc1", "~100 representative kinases (Homo sapiens)", -0.92),
]

Input: For the compound Cc1ccc(-n2nc(C(C)(C)C)cc2NC(=O)Nc2cccc(-c3c[nH]c4ncnc(N5CCOCC5)c34)c2)cc1 , give its measured dTm value.
Output: 2.62

Input: Find the measured dTm of CCSc1nc(NC)c2c(-c3cccc(NC(=O)Nc4cc(C(C)(C)C)nn4-c4ccc(C)cc4)c3)c[nH]c2n1 and report it.
Output: -0.22

Input: Give dTm for the following compound: O=C(Nc1ccc(F)cc1)C1(C(=O)Nc2cccc(-c3c[nH]c4ncnc(N5CCOCC5)c34)c2)CC1
Output: -0.33

Input: Check the records and state dTm for O=C(Nc1cccc(-c2c[nH]c3ncnc(N4CCOCC4)c23)c1)C1(C(=O)Nc2cccc3c2CCC3)CC1
Output: -0.99

Input: Provide dTm value for the following compound: COc1cc2c(Oc3ccc(NC(=O)C4(C(=O)Nc5ccc(F)cc5)CC4)cc3F)ccnc2cc1OCCCN1CCOCC1 [Foretinib, reference compound]
Output: -0.15

Input: Write down dTm measured for item O=C(Nc1ccc(Cl)cc1)C1(C(=O)Nc2cccc(-c3c[nH]c4ncnc(N5CCOCC5)c34)c2)CC1
Output: 0.12

Input: Return value of dTm for input O=C(Nc1cccc(-c2c[nH]c3ncnc(N4CCOCC4)c23)c1)C1(C(=O)Nc2ccc(F)cc2F)CC1 , no commentary.
Output: -1.28

Input: // fetch dTm given entry COc1cc(C(=O)N2CCOCC2)c(F)cc1Nc1nc(N(C)C)c2c(Cl)c[nH]c2n1
Output: 3.45

Input: # return recorded dTm for entry Cn1cc(-c2c[nH]c3ncnc(N4CCOCC4)c23)cc1C#N
Output: 0.54

* * *

Target Or Test System: ~100 representative kinases (Homo sapiens)
Construct: Recombinant protein kinase domains with a concentration of 2 μM
Experiment Description: DSF 100 kinase selectivity screen;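 further: compound tested at 20 µM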
Assay type: binding
Assay Setup: protein PKMYT1; average of three replicates
Overview of reported dTm across a group of compounds:
Please answer in the form of a number followed by its unit of measurement.

# annotated cases, reported dTm shown
# Compound, dTm
records = [
    ("O=C(Nc1cccc(-c2c[nH]c3ncnc(N4CCOCC4)c23)c1)C1(C(=O)Nc2cc(Br)c(F)cc2F)CC1", "-1.04 K"),
    ("O=C(Nc1cc(F)cc(Br)c1)C1(C(=O)Nc2cccc(-c3c[nH]c4ncnc(N5CCOCC5)c34)c2)CC1", "-2.72 K"),
    ("Cc1cc(F)ccc1NC(=O)C1(C(=O)Nc2cccc(-c3c[nH]c4ncnc(N5CCOCC5)c34)c2)CC1", "-0.26 K"),
]

Let us move to another entry and its dTm.
Input: Identify measured dTm obtained with ~100 representative kinases (Homo sapiens) for COc1cc2c(Oc3ccc(NC(=O)C4(C(=O)Nc5ccc(F)cc5)CC4)cc3F)ccnc2cc1OCCCN1CCOCC1 [Foretinib, reference compound] .
Output: 0.92 K

* * *

Target Or Test System: ~100 representative kinases (Homo sapiens, UniProt Q13627)
Construct: Recombinant protein kinase domains with a concentration of 2 μM
Experiment Description: DSF 100 kinase selectivity screen;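 further: compound tested at 20 µM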
Format: binding
Assay Setup: Protein DYRK1A; average of three replicates
Endpoint: dTm (K)
Respond with the bare value in K.

Solved entries (count: 5):
# Molecule, dTm, K
measured = [
    ("CC(C)(C)c1cc(NC(=O)Nc2cccc(-c3c[nH]c4ncnc(N5CCOCC5)c34)c2)n(-c2ccc3ncccc3c2)n1 [Compound 28]", 7.41),
    ("Cc1cc(NC(=O)C2(C(=O)Nc3cccc(-c4c[nH]c5ncnc(N6CCOCC6)c45)c3)CC2)ccc1F [Compound 20]", 7.39),
    ("Cc1cc(NC(=O)C2(C(=O)Nc3ccc(F)cc3)CC2)cc(-c2c[nH]c3ncnc(N4CCOCC4)c23)c1 [Compound 6]", -0.88),
    ("O=C(Nc1cccc(-c2c[nH]c3ncnc(N4CCOCC4)c23)c1)C1(C(=O)Nc2ccc(F)c(Br)c2)CC1 [Compound 19]", 1.71),
    ("Cc1ccc(NC(=O)C2(C(=O)Nc3cccc(-c4c[nH]c5ncnc(N6CCOCC6)c45)c3)CC2)cc1 [Compound 14]", 3.30),
]

Input: Tell us which dTm value is on record for CCNc1nc(Nc2cc(F)c(C(=O)N3CCOCC3)cc2OC)ncc1C(F)(F)F [GNE-7915]
Output: -0.0472

Input: Answer with reported dTm of O=C(Nc1cccc(-c2c[nH]c3ncnc(N4CCOCC4)c23)c1)C1(C(=O)Nc2ccc(F)c(Cl)c2)CC1 [Compound 18]
Output: 6.34

* * *

Each entry below carries its recorded dTm.
Target Or Test System: ~100 representative kinases (Homo sapiens, UniProt O14733)
Construct: Recombinant protein kinase domains with a concentration of 2 μM
Sequence (O14733 1-419): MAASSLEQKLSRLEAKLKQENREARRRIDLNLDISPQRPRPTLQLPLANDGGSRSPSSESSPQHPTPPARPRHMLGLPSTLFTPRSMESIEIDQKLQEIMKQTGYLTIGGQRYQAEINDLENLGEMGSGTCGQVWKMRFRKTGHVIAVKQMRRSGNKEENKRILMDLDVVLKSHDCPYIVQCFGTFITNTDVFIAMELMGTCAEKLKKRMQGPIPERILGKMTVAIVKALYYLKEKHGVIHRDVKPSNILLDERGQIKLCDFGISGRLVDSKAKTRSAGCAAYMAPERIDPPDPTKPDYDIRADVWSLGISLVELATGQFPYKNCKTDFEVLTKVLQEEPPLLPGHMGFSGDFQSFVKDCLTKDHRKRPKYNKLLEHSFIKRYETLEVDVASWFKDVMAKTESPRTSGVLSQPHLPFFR
Experiment Description: DSF 100 kinase selectivity screen;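 further: compound tested at 20 µM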
Format: binding
Assay Setup: protein MAP2K7; average of three replicates

# Compound, Result
records = [
    ("Cc1cc(NC(=O)C2(C(=O)Nc3cccc(-c4c[nH]c5ncnc(N6CCOCC6)c45)c3)CC2)ccc1F [Compound 20]", "5.31 K"),
    ("Cc1cc(NC(=O)C2(C(=O)Nc3ccc(F)cc3)CC2)cc(-c2c[nH]c3ncnc(N4CCOCC4)c23)c1 [Compound 6]", "1.34 K"),
    ("CC(C)(C)c1cc(NC(=O)Nc2cccc(-c3c[nH]c4ncnc(N5CCOCC5)c34)c2)n(-c2ccc3ncccc3c2)n1 [Compound 28]", "3.13 K"),
]

Next:
Input: Read the entry COc1cc(S(C)(=O)=O)ccc1Nc1nc(N(C)C)c2c(Cl)c[nH]c2n1 [Compound 37] and write its reported dTm.
Output: -0.81 K

* * *

Target Or Test System: ~100 representative kinases (Homo sapiens)
Construct: Recombinant protein kinase domains with a concentration of 2 μM
Experiment Description: DSF 100 kinase selectivity screen;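 further: compound tested at 20 µM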
Format: binding
Assay Setup: protein MAPK1; average of three replicates
Endpoint: dTm (K)
Quick note: give the figure in K, leave out the unit.

Example molecules with recorded dTm:
# Molecule, Value Units, dTm
records = [
    ("O=C(Nc1cccc(-c2c[nH]c3ncnc(N4CCOCC4)c23)c1)C1(C(=O)Nc2ccc(F)c(F)c2)CC1 [Compound 17]", "K", -0.20),
    ("O=C(Nc1cc(F)cc(Br)c1)C1(C(=O)Nc2cccc(-c3c[nH]c4ncnc(N5CCOCC5)c34)c2)CC1 [Compound 27]", "K", 0.0359),
    ("O=C(Nc1ccc(Cl)cc1)C1(C(=O)Nc2cccc(-c3c[nH]c4ncnc(N5CCOCC5)c34)c2)CC1 [Compound 13]", "K", 0.06),
    ("COc1ccc(NC(=O)C2(C(=O)Nc3cccc(-c4c[nH]c5ncnc(N6CCOCC6)c45)c3)CC2)cc1 [Compound 16]", "K", -0.34),
    ("O=C(Nc1ccccc1)C1(C(=O)Nc2cccc(-c3c[nH]c4ncnc(N5CCOCC5)c34)c2)CC1 [Compound 12]", "K", 0.22),
]

Input: Using the record for COc1cc(NC(=O)C2(C(=O)Nc3cccc(-c4c[nH]c5ncnc(N6CCOCC6)c45)c3)CC2)ccc1F [Compound 21] , state its measured dTm.
Output: -0.09

Input: Using known records, supply dTm for Cc1cc(F)ccc1NC(=O)C1(C(=O)Nc2cccc(-c3c[nH]c4ncnc(N5CCOCC5)c34)c2)CC1 [Compound 24]
Output: -0.19
